# assay protocol: Irreversible inhibition of human CES2A assessed as inhibition constant incubated for 5 to 30 mins
readout type: Ki (pM)
Return type: number; implicit unit pM.

Query (compound): CCCCCCCCC(=O)c1cccc2oc(-c3cc(OC)ccc3OC(=O)N3CCCC3)cc12 ; field requested: Ki
430

----------
# assay protocol: Inhibition of human CES1A using NLMe as substrate preincubated for 3 mins followed by substrate addition and measured after 20 mins by chemiluminescence analysis
Binarize IC50 at 7 nM; below is class 1, at or above is class 0.

Example entries begin here.
smiles text: CCCCCCCCC(=O)c1cccc2oc(-c3cc(OC)ccc3OC(=O)N(C)CC)cc12
label class: class 1
--
smiles text: CCCCCCC(=O)c1cccc2oc(-c3cc(OC)ccc3OC(=O)N3CCCC3)cc12
label class: class 1
--
smiles text: CCCCCCCCC(=O)c1cccc2oc(-c3cc(OC)ccc3OC(=O)N3CCOCC3)cc12
label class: class 0

Input CCCCCCCCC(=O)c1cccc2oc(-c3cc(OC)ccc3OC(=O)N(C)C)cc12 ; condition: IC50 strictly below 7 nM. Does it hold?
class 0

Input CCCCCCC(=O)c1cccc2oc(-c3ccccc3NC(=O)OCCCl)cc12 ; condition: IC50 strictly below 7 nM. Does it hold?
class 0

Input CCCCCCC(=O)c1cccc2oc(-c3cc(C)ccc3NC(=O)OCC(C)C)cc12 ; condition: IC50 strictly below 7 nM. Does it hold?
class 0

Input CCCCCCC(=O)c1cccc2oc(-c3cc(OC)ccc3OC(=O)N(C)C)cc12 ; condition: IC50 strictly below 7 nM. Does it hold?
class 0

The values you see were collected from ChEMBL document CHEMBL6178015.
